Experiment: isobaric coefficient of expansion
Conditions: 288.15 K; 5000 kPa; Liquid; DSC
Field: isobaric coefficient of expansion. Provide a value for each of the compounds that follow.

Supply recorded isobaric coefficient of expansion for CCC#N here.
0.00125 1/K

Supply recorded isobaric coefficient of expansion for O=[N+]([O-])c1ccccc1 here.
0.000818 1/K

Supply recorded isobaric coefficient of expansion for CCC[N+](=O)[O-] here.
0.00106 1/K

Supply recorded isobaric coefficient of expansion for C[N+](=O)[O-] here.
0.00118 1/K

Supply recorded isobaric coefficient of expansion for CC[N+](=O)[O-] here.
0.00114 1/K

Supply recorded isobaric coefficient of expansion for N#Cc1ccccc1 here.
0.000845 1/K
